Each entry below carries its recorded MIC.
tested on: Streptococcus pyogenes; experiment: Antibacterial activity against erythromycin-resistant Streptococcus pyogenes R1 clinical isolate by broth microdilution method; format: functional
READOUT_LABEL: MIC (µg/mL)

- COMPOUND: "CCCCCCNC(=O)O[C@@H]1[C@@H](C)N(C)C[C@H](C)C[C@@](C)(O)[C@H](O[C@@H]2O[C@H](C)C[C@H](N(C)C)[C@H]2O)[C@@H](C)[C@H](OC(=O)Nc2ccc(OC)cc2)[C@@H](C)C(=O)O[C@H](CC)[C@@]1(C)O"
  TARGET_DESC: "Streptococcus pyogenes"
  READOUT_LABEL: "MIC"
  UNIT_OF_MEASURE: "µg/mL"
  VALUE_OBSERVED: 32
- COMPOUND: "CC[C@H]1OC(=O)[C@H](C)[C@@H](OC(=O)NCc2ccccc2)[C@H](C)[C@@H](O[C@@H]2O[C@H](C)C[C@H](N(C)C)[C@H]2OC(C)=O)[C@](C)(O)C[C@@H](C)CN(C)[C@H](C)[C@H]2OC(=O)O[C@@]21C"
  TARGET_DESC: "Streptococcus pyogenes"
  READOUT_LABEL: "MIC"
  UNIT_OF_MEASURE: "µg/mL"
  VALUE_OBSERVED: 128
- COMPOUND: "CC[C@H]1OC(=O)[C@H](C)[C@@H](OC(=O)Nc2cccc(C(F)(F)F)c2)[C@H](C)[C@@H](O[C@@H]2O[C@H](C)C[C@H](N(C)C)[C@H]2O)[C@](C)(O)C[C@@H](C)CN(C)[C@H](C)[C@H]2OC(=O)O[C@@]21C"
  TARGET_DESC: "Streptococcus pyogenes"
  READOUT_LABEL: "MIC"
  UNIT_OF_MEASURE: "µg/mL"
  VALUE_OBSERVED: 64
- COMPOUND: "CC[C@H]1OC(=O)[C@H](C)[C@@H](O[C@H]2C[C@@](C)(OC)[C@@H](O)[C@H](C)O2)[C@H](C)[C@@H](O[C@@H]2O[C@H](C)C[C@H](N(C)C)[C@H]2O)[C@](C)(OC)C[C@@H](C)C(=O)[C@H](C)[C@@H](O)[C@]1(C)O [CLARITHROMYCIN]"
  TARGET_DESC: "Streptococcus pyogenes"
  READOUT_LABEL: "MIC"
  UNIT_OF_MEASURE: "µg/mL"
  VALUE_OBSERVED: 256

###

Each entry below carries its recorded Ratio.
system: Streptococcus pneumoniae; test: Potency index, ratio of azithromycin MIC to test compound MIC for erythromycin-resistant Streptococcus pneumoniae B1 expressing ermB gene; type: functional

- SMILES_RECORD: "CC[C@H]1OC(=O)[C@H](C)[C@@H](OC(=O)Nc2ccccc2)[C@H](C)[C@@H](O[C@@H]2O[C@H](C)C[C@H](N(C)C)[C@H]2O)[C@](C)(O)C[C@@H](C)CN(C)[C@H](C)[C@H]2OC(=O)O[C@@]21C"
  Ratio: 16
- SMILES_RECORD: "CCCCCCNC(=O)O[C@@H]1[C@@H](C)N(C)C[C@H](C)C[C@@](C)(O)[C@H](O[C@@H]2O[C@H](C)C[C@H](N(C)C)[C@H]2O)[C@@H](C)[C@H](OC(=O)Nc2ccc(OC)cc2)[C@@H](C)C(=O)O[C@H](CC)[C@@]1(C)O"
  Ratio: 256
